Where do the numbers come from? From the supplement of paper PMC6755084.

B1: F1*; the commonest letter at each place (parent)
chain: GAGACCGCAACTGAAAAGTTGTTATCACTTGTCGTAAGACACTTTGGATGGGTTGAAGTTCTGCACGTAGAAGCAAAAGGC

Variants of: B1
Protocol details: fraction ligated after 30 min (ligated reads / total reads); higher = more ligase activity
Assay setup: with F1*sub RNA substrate (template-directed ligation), 42 °C
Please respond with reported fraction ligated for every item in the list.

Guide cases for fraction ligated, answers given:
- Variant: "C28G T29G"
  Metric name: "fraction ligated"
  Value: 0.789
- Variant: "C33A G55T"
  Metric name: "fraction ligated"
  Value: 0.809

Go through the items and report each one's fraction ligated.
1. T23G C40A
2. T29C C42A
3. C42G A56T
4. G34A G47A
5. T29C T35C
6. A41C T43C

Response given:
[0.873, 0.85, 0.797, 0.805, 0.801, 0.766]
